tested on: MALME-3M melanoma; experiment: NCI-60 one-dose screen, 48 h (100 = growth as untreated, 0 = no growth, -100 = all killed); conditions: 10 µM unless noted
About 83,000 compounds went through this panel and 20% of them were active in at least one assay; those are over-represented in the sample as a whole.
Rule: Fulfilled for growth not less than 90%, Not fulfilled for anything less.

Solved entries (count: 10):
COMPOUND	CLASS
COc1ccc(C#Cc2ccc(=O)oc2-c2cc(OC)c(OC)c(OC)c2)cc1O	Not fulfilled
N#Cc1c(Nc2ccc(N3CCOCC3)cc2)nc(SCC(=O)c2ccc(Br)cc2)nc1-c1ccccc1	Fulfilled
O=C(Nc1ccc(Cl)cc1)Oc1c(Cl)c(Cl)c(Cl)c(Cl)c1Cl	Fulfilled
COc1ccc(CCN2C(=O)/C(=C/c3ccc(C4Oc5ccccc5C5CC(c6ccccc6)=NN54)cc3)SC2=S)cc1 (centres undefined)	Fulfilled
COc1cccc(NCc2nnc(Nc3ccc(Cl)cc3)c3ccccc23)c1	Not fulfilled
CC1(C)OB(O)c2cc(-c3nc4ccc5[nH]ncc5c4c4c3CCCC4)ccc21	Not fulfilled
CC(=O)OC[C@]12CC[C@@H]([C@@H](C)c3nnc(-c4ccncc4)o3)[C@@H]1[C@H]1CC[C@@H]3[C@@]4(C)CC[C@H](OC(C)=O)C(C)(C)[C@@H]4CC[C@@]3(C)[C@]1(C)CC2	Fulfilled
CCOC(=O)c1c(C)nc2ccccc2c1/C=C/c1ccccc1	Fulfilled
CN1CCN(c2ccc3nc4c(nc3c2C(F)(F)F)C(=O)c2ncccc2C4=O)CC1	Not fulfilled
CCOC(=O)c1ccccc1-c1c2ccc(=[N+](C)C)cc-2oc2cc(N(C)C)ccc12	Not fulfilled

Form field: growth at least 90%? Entry: `CC/C=C\CCC/C=C1/C(=O)C=C[C@@H]1C/C=C\CCCC(=O)OC`
Not fulfilled

I'd appreciate it if you could say whether N=c1c(S(=O)(=O)c2ccccc2)cc2c(=O)n3ccccc3nc2n1CC1CCCO1 (centres undefined) has growth at least equal to 90%.
Fulfilled

Hi, just wondering whether `Cc1ccc(-c2nc(/C=C3/C(=O)Nc4ccc(F)cc43)c3ccccn23)cc1` shows growth of 90% or higher.
Not fulfilled

Can `Cc1ccc(/C=C(\C#N)n2nnc3cc(F)c(F)cc32)cc1` be said to have growth at or above 90%?
Not fulfilled

# check: growth of `CCN(CC)CCCN1C(=O)c2c(c(C)c3c(oc4ccc(O)cc43)c2C)C1=O` is greater than or equal to 90%
Not fulfilled

Decide: is the reported value of growth for `O=C(Cc1ccc(NC(=O)c2cccc(Cl)c2)cc1)NCc1ccccc1` equal to or greater than 90%?
Not fulfilled

Textbook exercise: given the entry `O=C1Nc2c(C(=O)O)cccc2/C1=N/c1n[nH]c(=S)s1` , state whether its growth is greater than or equal to 90%.
Fulfilled

Textbook exercise: given the entry `N=C(N)c1ccc(-c2ccc(-c3cc(Cl)cc(Cl)c3)s2)nc1` , state whether its growth is greater than or equal to 90%.
Not fulfilled
